Tested on: HARA
ASSAY OVERVIEW: relative viability (nuclei count vs DMSO), 5 days (fraction); higher = more cells survive
TEST SETTINGS: first compound 0.01581 µM
METRIC NAME: relative viability
Note: the reply should be a number with no unit written.

Answered examples (3):
- MOLECULE: "Nc1ccn([C@@H]2O[C@H](CO)[C@@H](O)[C@@H]2O)c(=O)n1 [Cytarabine] + C[C@]1(O)C[C@@H](c2nc(-c3ccc4ccc(-c5ccccc5)nc4c3)c3c(N)nccn32)C1 [Linsitinib] (partner 1 µM)"
  MEASUREMENT: 0.608
- MOLECULE: "COc1cc2nccc(Oc3ccc(NC(=O)Nc4cc(C)on4)c(Cl)c3)c2cc1OC [Tivozanib] + Cc1cc(Nc2cc(N3CCN(C)CC3)nc(Sc3ccc(NC(=O)C4CC4)cc3)n2)n[nH]1 [Tozasertib] (partner 0.1 µM)"
  MEASUREMENT: 0.107
- MOLECULE: "Nc1ccn([C@@H]2O[C@H](CO)[C@@H](O)[C@@H]2O)c(=O)n1 [Cytarabine] + Cc1nc(NC(=O)N2CCC[C@H]2C(N)=O)sc1-c1ccnc(C(C)(C)C(F)(F)F)c1 [Alpelisib] (partner 2 µM)"
  MEASUREMENT: 0.376

Attention now turns to another entry.
Could you tell me which relative viability is on file for Nc1ccn([C@@H]2O[C@H](CO)[C@@H](O)[C@@H]2O)c(=O)n1 [Cytarabine] + COc1cc2c(Oc3ccc(NC(=O)C4(C(=O)Nc5ccc(F)cc5)CC4)cc3F)ccnc2cc1OCCCN1CCOCC1 [Foretinib] (partner 0.25 µM) ? 0.496

----------
The following compounds are shown together with reported relative viability values.
Tested on: HCC-366
ASSAY OVERVIEW: relative viability (nuclei count vs DMSO), 5 days (fraction); higher = more cells survive
TEST SETTINGS: first compound 0.1581 µM
The answer should be written as a number, with no unit following it.

- COMPOUND: "Nc1ccn([C@@H]2O[C@H](CO)[C@@H](O)[C@@H]2O)c(=O)n1 [Cytarabine] + CC1(C)CCC(c2ccc(Cl)cc2)=C(CN2CCN(c3ccc(C(=O)NS(=O)(=O)c4ccc(N[C@H](CCN5CCOCC5)CSc5ccccc5)c(S(=O)(=O)C(F)(F)F)c4)cc3)CC2)C1 [Navitoclax] (partner 0.5 µM)"
  relative viability: 0.0444

Proceeding to the next compound to report its relative viability.
State its relative viability on HCC-366: COc1cc2nccc(Oc3ccc(NC(=O)Nc4cc(C)on4)c(Cl)c3)c2cc1OC [Tivozanib] + Cc1nc(Nc2ncc(C(=O)Nc3c(C)cccc3Cl)s2)cc(N2CCN(CCO)CC2)n1 [Dasatinib] (partner 0.075 µM) 0.727

----------
Test system: NCI-H1734
ASSAY OVERVIEW: relative viability (nuclei count vs DMSO), 5 days (fraction); higher = more cells survive
TEST SETTINGS: first compound 0.01581 µM
METRIC NAME: relative viability
Please state the value as a number alone, without comment.

- MOLECULE: "Nc1ccn([C@@H]2O[C@H](CO)[C@@H](O)[C@@H]2O)c(=O)n1 [Cytarabine] + Cc1nc(Nc2ncc(C(=O)Nc3c(C)cccc3Cl)s2)cc(N2CCN(CCO)CC2)n1 [Dasatinib] (partner 0.075 µM)"
  MEASUREMENT: 0.221
- MOLECULE: "COc1cc2nccc(Oc3ccc(NC(=O)Nc4cc(C)on4)c(Cl)c3)c2cc1OC [Tivozanib] + COc1cc2c(Oc3ccc(NC(=O)C4(C(=O)Nc5ccc(F)cc5)CC4)cc3F)ccnc2cc1OCCCN1CCOCC1 [Foretinib] (partner 0.25 µM)"
  MEASUREMENT: 0.888

Now turn to the next molecule.
Write down the reported relative viability of COc1cc2nccc(Oc3ccc(NC(=O)Nc4cc(C)on4)c(Cl)c3)c2cc1OC [Tivozanib] + Cc1cc(Nc2cc(N3CCN(C)CC3)nc(Sc3ccc(NC(=O)C4CC4)cc3)n2)n[nH]1 [Tozasertib] (partner 0.1 µM) , test system: NCI-H1734. 0.258
